# Test system: Meloidogyne incognita
# test.method.notes: Root infestation on agar plate: root knot count on potato microplant roots
# Type: in vivo
# recorded.conditions: 60 μM in agar, galls counted 5 weeks after inoculation, four replicates
measured.parameter: Root knot count, average of the replicate counts
Would you mind answering with just the numeric figure?

In the examples that follow, each entry is paired with its recorded Root knot count, average of the replicate counts.
**Q:** Need Root knot count, average of the replicate counts, item CCC(N)P(=O)(O)O (stereo not shown)
**A:** 6.5

**Q:** Need Root knot count, average of the replicate counts, item CS(=O)(=O)c1cc(C(F)(F)F)ccc1C(=O)c1cnoc1C1CC1
**A:** 8.75

**Q:** Need Root knot count, average of the replicate counts, item COC(=O)c1sccc1S(=O)(=O)NC(=O)Nc1nc(C)nc(OC)n1
**A:** 0

**Q:** Need Root knot count, average of the replicate counts, item CCOc1ccc([Si](C)(C)CCCc2ccc(F)c(Oc3ccccc3)c2)cc1
**A:** 17.5

**Q:** Need Root knot count, average of the replicate counts, item Cc1cccc(C)c1N(C(=O)CCl)C1CCOC1=O (stereo not shown)
**A:** 14.5

Others:
**Q:** Need Root knot count, average of the replicate counts, item CCCCc1c(C)nc(NCC)nc1OS(=O)(=O)N(C)C
**A:** 8

**Q:** Need Root knot count, average of the replicate counts, item CC(C)(C)C(O)C(Oc1ccc(-c2ccccc2)cc1)n1cncn1 (stereo not shown)
**A:** 12.75

**Q:** Need Root knot count, average of the replicate counts, item CCCCOCCOCCOCc1cc2c(cc1CCC)OCO2
**A:** 19.25

**Q:** Need Root knot count, average of the replicate counts, item CC(C)(C)N(NC(=O)c1ccc(Cl)cc1)C(=O)c1ccccc1
**A:** 10.75

**Q:** Need Root knot count, average of the replicate counts, item Cc1cc(C)nc(Nc2ccccc2)n1
**A:** 18.25
